# testSystem: SmPabB (Stenotrophomonas maltophilia, UniProt B2FR92)
# Sequence (B2FR92 1-454): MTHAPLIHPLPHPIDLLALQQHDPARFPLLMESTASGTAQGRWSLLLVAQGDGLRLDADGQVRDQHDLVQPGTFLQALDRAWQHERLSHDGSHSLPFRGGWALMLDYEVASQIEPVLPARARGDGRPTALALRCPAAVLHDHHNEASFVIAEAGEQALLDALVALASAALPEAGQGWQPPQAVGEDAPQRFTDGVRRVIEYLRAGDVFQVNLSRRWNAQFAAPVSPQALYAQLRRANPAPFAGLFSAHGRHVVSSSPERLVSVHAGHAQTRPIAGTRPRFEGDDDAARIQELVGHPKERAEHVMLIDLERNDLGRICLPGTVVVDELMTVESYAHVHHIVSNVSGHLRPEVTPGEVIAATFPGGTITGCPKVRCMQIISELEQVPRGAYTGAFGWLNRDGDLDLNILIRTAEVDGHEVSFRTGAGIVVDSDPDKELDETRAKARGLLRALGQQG
pKd: −log10 of the molar value.

compoundSmiles	pKd
N[C@@H](Cc1c[nH]c2ccccc12)C(=O)O	~4.93
